// provenance: ChEMBL document CHEMBL1212820

test: Cmax in BALB/cAnNCrl mouse at 10 mg/kg, po; details: in vivo
Listing of entries alongside the reported Cmax.

SMILES_INPUT: CC(C)(C)c1cc(NC(=O)Nc2cccc(Oc3ccnc4[nH]c(=O)cnc34)c2)n(-c2ccccc2)n1
UNITS_SYMBOL: µM
Cmax: 29.5
--
SMILES_INPUT: Cc1ccc(-n2nc(C(C)(C)C)cc2NC(=O)Nc2ccc(Oc3ccnc4[nH]c(=O)cnc34)cc2)cc1
UNITS_SYMBOL: µM
Cmax: 31.9
--
SMILES_INPUT: Cc1ccc(-n2nc(C(C)(C)C)cc2NC(=O)Nc2ccc(Oc3ccnc4[nH]c(S)nc34)cc2F)cc1
UNITS_SYMBOL: µM
Cmax: 11.7
--
SMILES_INPUT: Cc1ccc(-n2nc(C(C)(C)C)cc2NC(=O)Nc2ccc(Oc3ccnc4[nH]c(=O)cnc34)cc2F)cc1
UNITS_SYMBOL: µM
Cmax: 33.6
--
SMILES_INPUT: CC(C)(C)c1cc(NC(=O)Nc2ccc(Oc3ccnc4[nH]c(=O)cnc34)c3ccccc23)n(-c2ccccc2)n1
UNITS_SYMBOL: µM
Cmax: 14.2
--
SMILES_INPUT: CSc1cc(Oc2ccnc3[nH]c(=O)cnc23)ccc1NC(=O)Nc1cc(C(C)(C)C)nn1-c1ccc(C)cc1
UNITS_SYMBOL: µM
Cmax: 101
--
SMILES_INPUT: Cc1ccc(-n2nc(C(C)(C)C)cc2NC(=O)Nc2ccc(Oc3ccnc4[nH]c(=O)c(=O)[nH]c34)cc2F)cc1
UNITS_SYMBOL: µM
Cmax: 5.54
--
SMILES_INPUT: Cc1ccc(-n2nc(C(C)(C)C)cc2NC(=O)Nc2cccc(Oc3ccnc4[nH]c(=O)cnc34)c2)cc1
UNITS_SYMBOL: µM
Cmax: 27
--
SMILES_INPUT: Cc1nc2c(Oc3ccc(NC(=O)Nc4cc(C(F)(F)F)ccc4F)c4ccccc34)ccnc2[nH]c1=O
UNITS_SYMBOL: µM
Cmax: 0.316
